target: DispSf; construct: mature polypeptide with polyhistidine tag; test: ITC

{"chem-smiles": "CC(=O)N[C@H]1CN2CC[C@H](O)[C@@H]2[C@@H](O)[C@@H]1O", "Kd": "15 µM"}

FYI, the data here is from paper PMC11883664.
